system: human Farnesoid X Receptor (FXR) ligand binding domain (Homo sapiens, UniProt Q96RI1)
Sequence (Q96RI1 193-472 isoform Q96RI1-2): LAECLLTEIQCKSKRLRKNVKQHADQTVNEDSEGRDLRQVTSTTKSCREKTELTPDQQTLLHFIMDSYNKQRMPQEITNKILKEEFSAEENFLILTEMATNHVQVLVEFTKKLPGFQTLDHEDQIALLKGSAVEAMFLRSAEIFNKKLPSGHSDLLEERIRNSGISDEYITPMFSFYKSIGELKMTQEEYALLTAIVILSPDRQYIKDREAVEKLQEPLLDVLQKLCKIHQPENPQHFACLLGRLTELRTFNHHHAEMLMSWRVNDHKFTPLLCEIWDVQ
test.details: Human GST-FXR LBD co-activator interaction assay (FXR HTRF assay)
experimental.context: GST-FXR LBD with biotin-labeled SRC-1 peptide, FRET/HTRF, 2.5 hours at room temperature; response relative to GW4064; read-out: FXR coactivator interaction assay (HTRF) (EC50)
Classes by EC50: 1: < 0.02 µM; 2: ≥ 0.02 µM and < 0.3 µM; 3: ≥ 0.3 µM

Worked examples, 10 compounds total:
NC(=O)c1ccc2nc(N3CCC(OCc4c(-c5c(Cl)cccc5Cl)noc4C4CC4)CC3)sc2c1	1
CCOC(=O)c1ccc2nc(N3CCC(OCc4c(-c5c(F)cccc5Cl)noc4C4CC4)CC3)sc2c1 [Example 2-11A]	3
CCOC(=O)c1ccc2nc(N3CCCC(OCc4c(-c5ccccc5C(F)(F)F)noc4C4CC4)CC3)sc2c1 (stereo not drawn)	3
N#Cc1ccc2nc(N3CCC(OCc4c(-c5ccccc5OC(F)(F)F)noc4C4CC4)CC3)sc2c1	3
CC(C)c1onc(-c2c(Cl)cccc2Cl)c1COC1CCN(c2nc3ccc(C(=O)O)cc3s2)CC1	1
CCOC(=O)c1ccc2nc(N3CCC(OCc4c(-c5c(Cl)cccc5Cl)noc4C(C)C)CC3)sc2c1	3
Fc1cccc(Cl)c1-c1noc(C2CC2)c1COC1CCN(c2nc3ccc(-c4nn[nH]n4)cc3s2)CC1	2
O=C(O)c1ccc2nc(N3CCC(OCc4c(C5CCCCC5)noc4C4CC4)CC3)sc2c1	2
Cc1cc(C(=O)O)cc2sc(N3CCC(OCc4c(-c5ccccc5OC(F)F)noc4C4CC4)CC3)nc12	2
O=C(O)c1ccc2nc(N3CCCC(OCc4c(-c5ccccc5OC(F)(F)F)noc4C4CC4)CC3)sc2c1 (stereo not drawn)	1

Kindly identify the class of COc1cc(C(=O)O)cc2sc(N3CCC(OCc4c(-c5ccccc5OC(F)(F)F)noc4C4CC4)CC3)nc12 .
1

Kindly identify the class of O=C(O)c1ccc2nc(N3CCC(OCc4c(-c5c(F)cccc5F)noc4C4CC4)CC3)sc2c1 .
2

Kindly identify the class of NC(=O)c1cc(F)c2nc(N3CCC(OCc4c(-c5ccccc5OC(F)(F)F)noc4C4CC4)CC3)sc2c1 .
2

Kindly identify the class of O=C(O)c1ccc2nc(N3CCC(OCc4c(C5CCCC5)noc4C4CC4)CC3)sc2c1 .
2

Kindly identify the class of O=C(O)c1cc(OC(F)(F)F)c2nc(N3CCC(OCc4c(-c5ccccc5OC(F)(F)F)noc4C4CC4)CC3)sc2c1 .
1
